Target of assay: Glycogen synthase kinase-3 beta (Homo sapiens)
Experimental parameters: Compound concentration 20.0 uM
Description: Thermal Shift Assay. Domain: start/stop: M26-R383
Label key: true (1) means ΔTm under -0.8 °C; false (0) means ΔTm of -0.8 °C or more.

Data request: Does this molecule meet the criterion ΔTm < -0.8 °C? "Cc1ccc([N+](=O)[O-])cc1S(=O)(=O)N(C)C"
Data returned: false (0)

Data request: Does this molecule meet the criterion ΔTm < -0.8 °C? "O=C(c1ccc2c(ccn2-c2ccc(F)cc2)c1)N1CC(N2CCN(C(=O)c3nccs3)CC2)C1"
Data returned: true (1)

Data request: Does this molecule meet the criterion ΔTm < -0.8 °C? "CC(=O)N[C@@H](CC(=O)O)C(=O)N[C@@H](CC(N)=O)C(=O)N[C@@H](CC(C)C)C(=O)N[C@H](C=O)CC(=O)O"
Data returned: true (1)

Data request: Does this molecule meet the criterion ΔTm < -0.8 °C? "Cn1cc(C(=O)Nc2ccc([C@@H]3C[C@H]3NCC3CC3)cc2)cn1"
Data returned: false (0)
